B1: Hairpin Ribozyme (parent)
chain: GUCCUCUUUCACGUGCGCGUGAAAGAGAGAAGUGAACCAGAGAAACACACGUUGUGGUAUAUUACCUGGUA

Variants of: B1
Assay: self-cleavage, relative activity (ratio to wild type); higher = more cleavage; co-transcriptional
Assay endpoint: self-cleavage

INSERT INTO results (mutation_label, reported) VALUES
  ('U8C A45U', 0.257),
  ('A41U A64U', 0.258),
  ('G19C A26U', 0.719),
  ('G21U G68A', 0.237),
  ('C6U U63A', 0.207),
  ('C4A A28G', 0.247),
  ('C10U U55G', 0.201),
  ('G17U G42A', 0.152),
  ('A22C U60G', 0.484),
  ('G29C U52A', 0.129),
  ('A28G C66U', 0.654),
  ('U55C U62A', 0.106),
  ('U9A A39G', 0.201),
  ('U33A U70A', 0.0761),
  ('U60A A64C', 0.206),
  ('G27U A59G', 0.209),
  ('C10A A23U', 0.666),
  ('G42C C65A', 0.21),
  ('A36G A64U', 0.138),
  ('A41G A47G', 0.0362),
  ('G25A U60A', 0.626),
  ('U33G G40C', 0.0649);

Every entry's value here was drawn from the RNAGym collection of RNA variant scans (doi:10.7554/elife.80360).
